# Fa listing for each entry below
assay: Fraction absorbed in human intestine after oral administration compound was measured; assay type: ADME, tissue-based
Where a SMILES comes first, the peptide text is derived from it.

compound: CN(CC(=O)O)C(=O)CN [GLYCYLSARCOSINE] (HELM PEPTIDE1{G.[Sar]}$$$$V2.0)
Fa, %: 100
//
compound: CC(C)[C@H](N)C(=O)OCCOCn1cnc2c(=O)[nH]c(N)nc21 [VALACYCLOVIR]
Fa, %: 36
//
compound: OC[C@H]1O[C@@H](O[C@@H]2[C@@H](CO)O[C@](O)(CO)[C@H]2O)[C@H](O)[C@@H](O)[C@H]1O [LACTULOSE]
Fa, %: 1
//
compound: CC(C)NCC(O)COc1cccc2ccccc12 (stereo unspecified) [PROPRANOLOL]
Fa, %: 100
//
compound: C[C@H]1O[C@@H](O[C@H]2[C@@H](O)C[C@H](O[C@H]3[C@@H](O)C[C@H](O[C@H]4CC[C@@]5(C)[C@H](CC[C@@H]6[C@@H]5C[C@@H](O)[C@]5(C)[C@@H](C7=CC(=O)OC7)CC[C@]65O)C4)O[C@@H]3C)O[C@@H]2C)C[C@H](O)[C@@H]1O [DIGOXIN]
Fa, %: 81
//
compound: CN(Cc1cnc2nc(N)nc(N)c2n1)c1ccc(C(=O)NC(CCC(=O)O)C(=O)O)cc1 (single isomer, unassigned) [METHOTREXATE]
Fa, %: 59

----------
experiment: Fraction absorbed in human intestine after oral administration compound was measured; type: ADME, tissue-based

compound: Nc1nc(=O)c2ncn([C@@H]3C[C@H](CO)[C@H]3CO)c2[nH]1 [LOBUCAVIR]
unit: %
Fa: 50

compound: O=C(O)P(=O)(O)O [FOSCARNET]
unit: %
Fa: 17

compound: CN1CC(=O)NC1=N [CREATININE]
unit: %
Fa: 70

compound: O=C(O)c1cc(/N=N/c2ccc(S(=O)(=O)Nc3ccccn3)cc2)ccc1O [SULFASALAZINE]
unit: %
Fa: 12

compound: OC[C@H]1O[C@H](OC[C@H]2O[C@H](O[C@]3(CO)O[C@H](CO)[C@@H](O)[C@@H]3O)[C@H](O)[C@@H](O)[C@@H]2O)[C@H](O)[C@@H](O)[C@H]1O [RAFFINOSE]
unit: %
Fa: 0

compound: Nc1nc(O)c2ncn(COC(CO)CO)c2n1 [GANCICLOVIR]
unit: %
Fa: 5

compound: CC(C)(C)NCC(O)c1cc(O)cc(O)c1 (stereo not given) [TERBUTALINE]
unit: %
Fa: 73

compound: O=c1[nH]cnc2c1ncn2[C@H]1CC[C@@H](CO)O1 [DIDANOSINE]
unit: %
Fa: 42

compound: CC(C)(C)NCC(O)COc1cccc2c1C[C@H](O)[C@H](O)C2 (stereo not given in full) [NADOLOL]
unit: %
Fa: 30

compound: CCN1CCCC1CNC(=O)c1cc(S(N)(=O)=O)ccc1OC (stereo not given) [SULPIRIDE]
unit: %
Fa: 30

compound: O=C(O)c1cc(/N=N/c2ccc(O)c(C(=O)O)c2)ccc1O [OLSALAZINE]
unit: %
Fa: 3

compound: O=P(O)(O)C(Cl)(Cl)P(=O)(O)O [CLODRONIC ACID]
unit: %
Fa: 3

compound: Cc1ccccc1N1C(=O)c2cc(S(N)(=O)=O)c(Cl)cc2NC1C (stereo not given) [METOLAZONE]
unit: %
Fa: 64

compound: Nc1nc2c(ncn2COCCO)c(=O)[nH]1 [ACYCLOVIR]
unit: %
Fa: 19

compound: CN/C(=N/CCSCc1nc[nH]c1C)NC#N [CIMETIDINE]
unit: %
Fa: 80
